reported.metric: MIC (µM)
Record the value in µM, omitting the unit from your answer.

Notebook entry, Salmonella enterica subsp. enterica serovar Typhimurium ATCC 14028 assay: MIC of CC[C@H](C)[C@H](NC(=O)[C@H](CCCN=C(N)N)NC(=O)[C@H](CCCN=C(N)N)NC(=O)[C@H](CCCCN)NC(=O)[C@@H](N)CCCN=C(N)N)C(=O)N[C@H](C(=O)N[C@H](C(=O)N[C@H](C(=O)N[C@@H](CCCN=C(N)N)C(=O)N[C@@H](CCCN=C(N)N)C(=O)N[C@@H](CCCCN)C(=O)N[C@@H](CCCN=C(N)N)C(N)=O)[C@@H](C)CC)C(C)C)C(C)C [RKRRIVVIRRKR] = ?
128

Notebook entry, Salmonella enterica subsp. enterica serovar Typhimurium ATCC 14028 assay: MIC of CC[C@H](C)[C@H](NC(=O)[C@H](CCCCN)NC(=O)[C@H](C)NC(=O)[C@H](C)NC(=O)[C@H](C)NC(=O)[C@H](CCCCN)NC(=O)[C@H](C)NC(=O)[C@H](C)NC(=O)[C@H](C)NC(=O)[C@H](CCCCN)NC(=O)[C@@H](NC(=O)[C@@H](N)Cc1c[nH]c2ccccc12)[C@@H](C)CC)C(=O)N[C@@H](Cc1c[nH]c2ccccc12)C(N)=O [WIKAAAKAAAKIW] = ?
32

Notebook entry, Salmonella enterica subsp. enterica serovar Typhimurium ATCC 14028 assay: MIC of CC[C@H](C)[C@@H]1NC(=O)[C@H](CCCN=C(N)N)NC(=O)[C@@H](NC(=O)[C@H](CC(C)C)NC(=O)[C@@H](N)CCCN=C(N)N)CSSC[C@@H](C(=O)N[C@@H](CCCN=C(N)N)C(N)=O)NC(=O)[C@H](C(C)C)NC(=O)[C@H](CCCN=C(N)N)NC(=O)[C@H]([C@@H](C)CC)NC(=O)[C@H](C(C)C)NC(=O)[C@H](C(C)C)NC1=O [RLCRIVVIRVCR] = ?
128

====

reported.metric: MIC (µM)
Record the value in µM, omitting the unit from your answer.

Notebook entry, Staphylococcus epidermidis assay: MIC of `CC[C@H](C)[C@H](NC(=O)[C@H](CC(=O)O)NC(=O)[C@@H](N)Cc1ccccc1)C(=O)N[C@@H](CCSC)C(=O)NCC(=O)N[C@@H](CC(C)C)C(=O)N[C@H](C(=O)N[C@@H](CCCCN)C(=O)N[C@@H](CCCCN)C(=O)N[C@H](C(=O)N[C@@H](C)C(=O)NCC(=O)N[C@@H](C)C(=O)N[C@@H](CC(C)C)C(N)=O)C(C)C)[C@@H](C)CC` = ?
30

====

reported.metric: MIC (µM)
Record the value in µM, omitting the unit from your answer.

Notebook entry, Staphylococcus aureus NCTC 10788 assay: MIC of `CC[C@H](C)[C@@H]1NC(=O)[C@H](C)NC(=O)[C@@H](NC(=O)[C@H](Cc2ccccc2)NC(=O)[C@@H](NC(=O)[C@H](CCCCN)NC(=O)[C@@H]2CCCN2C(=O)[C@H](CC(C)C)NC(=O)[C@H](Cc2ccccc2)NC(=O)[C@@H](N)CCCCN)[C@@H](C)CC)CSSC[C@@H](C(=O)O)NC(=O)[C@H](CCCCN)NC(=O)[C@H](CCCCN)NC(=O)[C@H]([C@@H](C)O)NC1=O` = ?
8
